Assay Explanation: Live/dead FDA/PI double staining, HUVEC
Assay type: cell-based
Setup Conditions: human, HUVEC cells, 5 μM, read-out: Viable cell percentage
Description: HCT-15 or HUVEC cells were cultured in six-well plates for 24 h. The cells were washed with PBS and incubated with medium containing 0.625, 1.25, 2.5, 5, and 10 μM of 16 for 48 h. […] The cells were imaged with a fluorescence microscope (Nikon ECLIPSE TE2000-U, Tokyo, Japan).
Quantity Measured: viability at 48 h, 5 µM (%)
Give the value in % but do not write % after it.

Task item: Look at this compound and give its reported viability at 48 h, 5 µM. COc1cc(NC(=O)[C@@H]2CCCN2)c2cc1Oc1ccc(cc1)C[C@H]1c3cc(c(OC)cc3CCN1C)Oc1c(OC)c(OC)cc3c1[C@H](C2)N(C)CC3 [Compound 16, 14-N-(L-proline)-tetrandrine]
Reply: 1.9

---

The following molecules are listed with their measured IC50 values.
System: human normal hepatocyte cells (L-02)
Assay Explanation: MTT toxicity assay, normal hepatocytes L-02
Format: cell-based
Setup Conditions: 72 h, normal hepatocyte L-02 (toxicity), read-out: Antiproliferative Activity (IC50/μM) L-02
Procedure: Human lung cancer cell (A549,), human umbilical vein endothelial cells (HUVECs,), human colon cancer cell lines (HCT-15), human breast cancer cells (MCF-7), human liver cancer cells (HepG2), human pancreatic cancer cells (BxPC-3), and human hepatic cell line (L-02) were obtained from the Sichuan University. A549, HUVECs, and L-02 were cultured in DMEM medium (high glucose, HyClone, GE Healthcare, Sydney, Australia). […]
Give the value in µM but do not write µM after it.

{"Molecule": "COc1ccc2cc1Oc1ccc(cc1)C[C@H]1c3cc(c(OC)cc3CCN1C)Oc1c(OC)c(OC)cc3c1[C@H](C2)N(C)CC3 [TET, tetrandrine]", "Unit Text": "µM", "IC50": 16}

Please find the next molecule below.
Task item: Look at this molecule and give its reported IC50. COc1cc(NC(=O)[C@@H](N)Cc2ccc(O)cc2)c2cc1Oc1ccc(cc1)C[C@H]1c3cc(c(OC)cc3CCN1C)Oc1c(OC)c(OC)cc3c1[C@H](C2)N(C)CC3 [Compound 20, 14-N-(L-tyrosine)-tetrandrine]
Reply: 10

---

Tested on: human umbilical vein endothelial cells (HUVEC)
Assay Explanation: MTT antiproliferative assay, HUVEC
Assay type: cell-based
Setup Conditions: 72 h
The following compounds are listed with their measured IC50 values.
Remember to quote the unit after the number.

{"Molecule Smiles": "COc1cc(NC(=O)[C@H](CO)NC(=O)OC(C)(C)C)c2cc1Oc1ccc(cc1)C[C@H]1c3cc(c(OC)cc3CCN1C)Oc1c(OC)c(OC)cc3c1[C@H](C2)N(C)CC3", "IC50": "3.96 µM"}

Task item: Look at this compound and give its reported IC50. COc1cc(NC(=O)[C@@H](NC(=O)OC(C)(C)C)C(C)C)c2cc1Oc1ccc(cc1)C[C@H]1c3cc(c(OC)cc3CCN1C)Oc1c(OC)c(OC)cc3c1[C@H](C2)N(C)CC3
Reply: 3.04 µM

Task item: // same read-out, input: COc1cc(NC(=O)[C@H](CC(C)C)NC(=O)OC(C)(C)C)c2cc1Oc1ccc(cc1)C[C@H]1c3cc(c(OC)cc3CCN1C)Oc1c(OC)c(OC)cc3c1[C@H](C2)N(C)CC3
Reply: 2.09 µM

Task item: // same read-out, input: COc1cc(NC(=O)[C@@H](N)C(C)C)c2cc1Oc1ccc(cc1)C[C@H]1c3cc(c(OC)cc3CCN1C)Oc1c(OC)c(OC)cc3c1[C@H](C2)N(C)CC3
Reply: 2.48 µM
